System: Runx2
Assay Remarks: Runx2 activity, 6xOSE2-Luc luciferase reporter in transfected C2C12 cells
Type: cell-based, Mouse
Condition Details: Mus musculus, 5.0 μM, 24 hrs, read-out: luciferase activity relative to control set as 1
Readout Kind: fold induction at 5 µM

Before answering, review these 5 worked examples.
| Molecule | fold induction at 5 µM |
| --- | --- |
| Nc1ccccc1NC(=O)c1ccc(CN2Cc3cc(-c4cccnc4)ccc3C2=O)cc1 | 10.6 |
| Nc1ccccc1NC(=O)c1ccc(CN2Cc3cc(-c4ccc(C(F)(F)F)cc4)ccc3C2=O)cc1 | 4.5 |
| COc1cc2c(c(-c3ccccc3)c1OC)CN(CCCCCC(=O)Nc1ccccc1N)C2=O | 21.2 |
| Nc1ccccc1NC(=O)c1ccc(CN2Cc3c(cccc3-c3cc(F)cc(F)c3)C2=O)cc1 | 14.7 |
| COc1cc(C(=O)NCc2ccc(C(=O)Nc3ccccc3N)cc2)c(C)c(-c2cc(F)cc(F)c2)c1OC | 24.4 |

Report fold induction at 5 µM on Runx2 for this entry: "Nc1ccccc1NC(=O)CCCCCN1Cc2c(cccc2-c2cccnc2)C1=O"
8.2

Report fold induction at 5 µM on Runx2 for this entry: "Cc1cc(C(=O)NCCCCCC(=O)Nc2ccccc2N)ccc1-c1cncnc1"
3.7

Report fold induction at 5 µM on Runx2 for this entry: "COc1ccc(-c2cccc3c2CN(Cc2ccc(C(=O)Nc4ccccc4N)cc2)C3=O)cc1"
10.4

Report fold induction at 5 µM on Runx2 for this entry: "O=C(CCCCCN1Cc2cc(-c3ccc(C(F)(F)F)cc3)ccc2C1=O)NO"
3.7

---

Tested on: Runx2
Assay Remarks: Runx2 activity, 6xOSE2-Luc luciferase reporter in transfected C2C12 cells
Format: cell-based, Mouse
Condition Details: Mus musculus, 10 μM, 24 hrs, read-out: luciferase activity relative to control set as 1
Quick list: fold induction at 10 µM per entry.
// no unit, no text: just the number

| Molecule | Readout Kind | Data Value |
| --- | --- | --- |
| COc1ccc(-c2cccc3c2CN(Cc2ccc(C(=O)Nc4ccccc4N)cc2)C3=O)cc1F | fold induction at 10 µM | 19.6 |

State its fold induction at 10 µM: "Cc1cc(C)cc(-c2ccc(C(=O)NCCCCCC(=O)Nc3ccccc3N)cc2C)c1"
2.9

State its fold induction at 10 µM: "COc1cc(C(=O)NCc2ccc(C(=O)Nc3ccccc3N)cc2)c(C)c(-c2cccnc2)c1OC"
20.8

State its fold induction at 10 µM: "Nc1ccccc1NC(=O)c1ccc(CN2Cc3c(cccc3-c3ccc(-c4ccccc4)cc3)C2=O)cc1"
17.9

---

Tested on: Runx2
Assay Remarks: Runx2 activity, 6xOSE2-Luc luciferase reporter in transfected C2C12 cells
Assay type: cell-based, Mouse
Condition Details: Mus musculus, 20 μM, 24 hrs, read-out: luciferase activity relative to control set as 1
Readout Kind: fold induction at 20 µM

Before answering, review these 2 worked examples.
| Compound | fold induction at 20 µM |
| --- | --- |
| O=C(CCCCCN1Cc2cc(-c3cccnc3)ccc2C1=O)NO [Example 54] | 19.8 |
| COc1cc(C(=O)NCc2ccc(C(=O)Nc3ccccc3N)cc2)c(C)c(Br)c1OC [Example 73] | 25.9 |

Report fold induction at 20 µM on Runx2 for this entry: Cc1cc(C)cc(-c2cccc3c2CN(CCCCCC(=O)NO)C3=O)c1 [Example 41]
28

Report fold induction at 20 µM on Runx2 for this entry: COc1ccc(-c2ccc3c(c2)CN(CCCCCC(=O)NO)C3=O)cc1OC [Example 51]
26.4

Report fold induction at 20 µM on Runx2 for this entry: COc1cc2c(c(-c3cccnc3)c1OC)CN(Cc1ccc(C(=O)Nc3cc(-c4cccs4)ccc3N)cc1)C2=O [Example 48]
14.3

Report fold induction at 20 µM on Runx2 for this entry: Cc1ccc(-c2cccc3c2CN(Cc2ccc(C(=O)Nc4ccccc4N)cc2)C3=O)cc1F [Example 27]
20.3

Report fold induction at 20 µM on Runx2 for this entry: Nc1ccccc1NC(=O)CCCCCN1Cc2c(Br)cccc2C1=O [Example 36]
13

Report fold induction at 20 µM on Runx2 for this entry: Cc1cc(C(=O)NCCCCCC(=O)Nc2ccccc2N)ccc1-c1cncnc1 [Example 90]
22.1

Report fold induction at 20 µM on Runx2 for this entry: O=C(CCCCCN1Cc2c(cccc2-c2cc(F)cc(F)c2)C1=O)NO [Example 42]
17.9
